Assay: Inhibition of Na+/K+-ATPase by fluorometric method
pIC50: −log10 of the molar value.
Binary classification by pIC50, with 5 as an inclusive lower bound for met; all other cases are not met.

[[record]]
compound = "COC(=O)C(C(=O)c1cc(Br)c(O)c(Br)c1)=C(C(=O)OC)c1ccc(O)c(Br)c1"
group_label = "not met"

[[record]]
compound = "COC(=O)C1=C(c2cc(Br)c(O)c(Br)c2)C(=O)OC1=C(c1cc(Br)c(O)c(Br)c1)c1cc(Br)c(O)c(Br)c1 [CADIOLIDE I]"
group_label = "met"

[[record]]
compound = "O=C1O/C(=C\\c2cc(Br)c(O)c(Br)c2)C(c2ccc(O)c(Br)c2)=C1C(=O)c1cc(Br)c(O)c(Br)c1 [CADIOLIDE E]"
group_label = "met"

[[record]]
compound = "C[C@@H]1O[C@@H](O[C@H]2C[C@@H](O)[C@]3(CO)[C@H]4[C@H](O)C[C@]5(C)[C@@H](C6=CC(=O)OC6)CC[C@]5(O)[C@@H]4CC[C@]3(O)C2)[C@H](O)[C@H](O)[C@H]1O [OUABAIN]"
group_label = "met"

[[record]]
compound = "COC(=O)C(C(=O)c1cc(Br)c(O)c(Br)c1)=C(C(=O)OC)c1cc(Br)c(O)c(Br)c1"
group_label = "not met"


###

Assay: Cytotoxicity against human K562 cells after 48 hrs by MTT assay
Format: cell-based
Conditions: read-out: LC50
ENDPOINT: CC50 at 48 h (µM)

[[record]]
compound = "COC(=O)C1=C(c2cc(Br)c(O)c(Br)c2)C(=O)OC1=C(c1cc(Br)c(O)c(Br)c1)c1cc(Br)c(O)c(Br)c1 [CADIOLIDE I]"
measure_unit = "µM"
relation_qualifier = "="
observed_value = 51.2

[[record]]
compound = "COc1ccc(C=C2OC(=O)C([C@@H](O)c3cc(Br)c(OC)c(Br)c3)=C2c2cc(Br)c(O)c(Br)c2)cc1"
measure_unit = "µM"
relation_qualifier = "="
observed_value = 50.8

[[record]]
compound = "COC(=O)C(C(=O)c1cc(Br)c(O)c(Br)c1)=C(C(=O)OC)c1ccc(O)c(Br)c1"
measure_unit = "µM"
relation_qualifier = "="
observed_value = 49.7

[[record]]
compound = "O=C1O/C(=C\\c2cc(Br)c(O)c(Br)c2)C(c2ccc(O)c(Br)c2)=C1C(=O)c1cc(Br)c(O)c(Br)c1 [CADIOLIDE E]"
measure_unit = "µM"
relation_qualifier = ">"
observed_value = 100

[[record]]
compound = "COc1c(Br)cc([C@H](O)C2=C(c3ccc(O)c(Br)c3)/C(=C/c3ccc(O)c(Br)c3)OC2=O)cc1Br [CADIOLIDE G]"
measure_unit = "µM"
relation_qualifier = ">"
observed_value = 100

[[record]]
compound = "COc1cccc2c1C(=O)c1c(O)c3c(c(O)c1C2=O)C[C@@](O)(C(=O)CO)C[C@@H]3O[C@H]1C[C@H](N)[C@H](O)[C@H](C)O1"
measure_unit = "µM"
relation_qualifier = "="
observed_value = 4.7

[[record]]
compound = "COC(=O)C(C(=O)c1cc(Br)c(O)c(Br)c1)=C(C(=O)OC)c1cc(Br)c(O)c(Br)c1"
measure_unit = "µM"
relation_qualifier = "="
observed_value = 53.7


Attribution: ChEMBL document CHEMBL2203252
